Measured Ka values are reported for all entries that follow.
test-target: T1, recombinant human IL-23R/Fc chimera (R&D Systems) (human, UniProt Q5VWK5 24-355)
T1 construct: Bought; also called rhIL23RFc
T1 sequence (looked up): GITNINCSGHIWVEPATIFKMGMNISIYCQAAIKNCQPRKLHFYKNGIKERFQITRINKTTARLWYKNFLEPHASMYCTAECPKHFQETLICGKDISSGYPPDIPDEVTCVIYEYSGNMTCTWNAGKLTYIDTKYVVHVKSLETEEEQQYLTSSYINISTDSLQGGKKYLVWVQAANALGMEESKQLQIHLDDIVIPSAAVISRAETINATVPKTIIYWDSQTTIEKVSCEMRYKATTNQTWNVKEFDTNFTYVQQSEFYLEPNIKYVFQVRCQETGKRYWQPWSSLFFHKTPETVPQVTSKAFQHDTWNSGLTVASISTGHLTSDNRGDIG
assay-info: SPR
// note: answer is a bare numeric in M⁻¹

Sample records with Ka:
| binder | Ka, M⁻¹ |
| --- | --- |
| 056-41.B9B ATRIMER complex (designed binder, not shown: C-terminal tag: His/Myc (pANA4) or HA-StrepII (pANA10)) EPPTQKPKKIVNAKKDVVNTKMFEELKSRLDTLAQEVALLKEQQALQTVCLKGTKVHMKCFLAFTQTKTFHEASEDCISRGGTLSTPQTGSENDALYEYLRQSVGNEAEIWLGLNAPPDLGLWVDMTGARIAYKNWETEITAQPDGGWGVWGENCAVLSGAANGKWFDKRCRDQLPYICQFGIV | 1.94e+08 |
| 101-80-5E8 ATRIMER complex (designed binder) EPPTQKPKKIVNAKKDVVNTKMFEELKSRLDTLAQEVALLKEQQALQTVCLKGTKVHMKCFLAFTQTKTFHEASEDCISRGGTLSTPQTGSENDALYEYLRQSVGNEAEIWLGLNGSALTNTWVDMTGARIAYKNWEPPEPLHPMGGFGVFGENCAVLSGAANGKWFDKRCRDQLPYICQFGIV | 2.89e+09 |

Next item in the queue.
Supply recorded Ka for 056-53.H7B ATRIMER complex (designed binder, non-covalent homotrimer of the one chain given, not shown: Also the single Ser the vector leaves after the ompA signal) EPPTQKPKKIVNAKKDVVNTKMFEELKSRLDTLAQEVALLKEQQALQTVCLKGTKVHMKCFLAFTQTKTFHEASEDCISRGGTLSTPQTGSENDALYEYLRQSVGNEAEIWLGLNAGRMGLVWVDMTGARIAYKNWETEITAQPDGGWGVFGENCAVLSGAANGKWFDKRCRDQLPYICQFGIV here.
1.8e+09

Data origin, for the record: patent US20110086806A1
